meta.source: patent US20240059769A1

TARGET: T1, recombinant human IL-13 (human, UniProt P35225 35-146)
T1 construct: also called rh-IL-13; hIL-13
T1 sequence (P35225 35-146 limits assumed): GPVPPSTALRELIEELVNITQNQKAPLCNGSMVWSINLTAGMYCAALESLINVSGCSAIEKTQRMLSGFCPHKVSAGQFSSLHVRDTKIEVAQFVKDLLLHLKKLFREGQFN
METHOD_SUMMARY: SPR
READOUT: koff (s⁻¹)
// return numeric value only (unit: s⁻¹, not printed)

Below, 2 binders whose answers are already recorded.
# BINDER, koff / s⁻¹
data = [
    ("BDG38.110 (antibody, V domains shown, IgG1) VH: QMQLVESGGGVVQPGRSLRLSCAASGFEFRTYGMHWVRQAPGKGLEWVAVIWDDGSNTHYADSVKGRFTITRDNSKNTLNLQMNSLRAEDTAVYYCVRAPQWYLTAEAFDLWGQGTMVTVSS VL: SYILTQPPSVSVAPGETTRITCGGNLIGAKLVHWYQQKPGQAPVLVIYDDSDRPSRIPERFSGSNIGNTATLTIEDVEAGDEADYYCQVWDYSSNHMVFGGGTKLTVL", 0.000427),
    ("BDG38.112 (antibody, V domains shown, IgG1) VH: QMQLVESGGGVVQPGRSLRLSCAASGFEFRTYGMHWVRQAPGKGLEWLGVIWYDGSNTHYADSVKGRFTITRDNSKNTLNLQMNSLRAEDTAVYYCVRAPQWYLTAEAFDLWGQGTMVTVSS VL: SYILTQPPSVSVAPGQTATITCGGNLIGARLVHWYQQKPGQAPVLVIYDDSDRPSRIPERFSGSNIGNTATLTIERVEEGDEADYYCQVWDYSSDTYVFGGGTKLTVL", "4.02e-05"),
]

Now look at this one.
Req: Give the measured koff of BDG38.096 (antibody, V domains shown, IgG1) VH: QMQLVESGGGVVQPGRSLRLSCAASGFEFRTYGMHWVRQAPGKGLEWVAVIWDDGSNTHYADSVKGRFTITRDNSKNTLNLQMNSLRVEDTAVYYCVRAPQWYLTAEAFDLWGQGTMVTVSS VL: SYILTQPPSVSVAPGETARITCGGNLIGARLVHWYQQKPGQAPVLVIYDDSDRPSRIPERFSGSNIGNTATLTISRVEEGDEADYYCQVWDYSSDSMVFGGGTKLTVL .
Resp: 0.000155
